The following compounds are shown together with reported inhibition values.
- Tested on: Radical scavenging activity
- assay_explanation: Hydroxyl radical scavenging activity at 2 mM
- Format: functional
Expressed in %, but write only the number.

// known answers, use as guide
| compound | target_or_system | inhibition, % |
| --- | --- | --- |
| C=C(CCC=C(C)C)[C@H]1CC[C@]2(C)[C@@H]1[C@H](O)C[C@@H]1[C@@]3(C)CC[C@H](O[C@@H]4O[C@H](CO)[C@@H](O)[C@H](O)[C@H]4O[C@@H]4O[C@H](CO)[C@@H](O)[C@H](O)[C@H]4O)C(C)(C)[C@@H]3CC[C@]12C | Radical scavenging activity | 68 |
| CC(C)=CCC[C@](C)(O)[C@H]1CC[C@]2(C)[C@@H]1[C@H](O)C[C@@H]1[C@@]3(C)CC[C@H](O[C@@H]4O[C@H](CO)[C@@H](O)[C@H](O)[C@H]4O[C@@H]4O[C@H](CO)[C@@H](O)[C@H](O)[C@H]4O)C(C)(C)[C@@H]3CC[C@]12C | Radical scavenging activity | 20 |
| CC(C)=CCC[C@@](C)(O)[C@H]1CC[C@]2(C)[C@@H]1[C@H](O)C[C@@H]1[C@@]3(C)CC[C@H](O[C@@H]4O[C@H](CO)[C@@H](O)[C@H](O)[C@H]4O[C@@H]4O[C@H](CO)[C@@H](O)[C@H](O)[C@H]4O)C(C)(C)[C@@H]3CC[C@]12C | Radical scavenging activity | 72 |

Then there is this compound:
For record CC(C)=CC/C=C(\C)[C@H]1CC[C@]2(C)[C@@H]1[C@H](O)C[C@@H]1[C@@]3(C)CC[C@H](O[C@@H]4O[C@H](CO)[C@@H](O)[C@H](O)[C@H]4O[C@@H]4O[C@H](CO)[C@@H](O)[C@H](O)[C@H]4O)C(C)(C)[C@@H]3CC[C@]12C [GINSENOSIDE RG5] the listed inhibition is 16
